Cited source: ChEMBL document CHEMBL1152627

target: Nucleic Acid; experiment: Displacement of methyl green dye from DNA
Readout: IC50 (µM)
Value expressed in µM; do not type the unit.

Entry smiles: Cn1cc2ccccc2c2c3ccccc3nc1-2.I
IC50, µM: 87

--- query ---
Challenge: Could you share which IC50 value was measured for "Cn1cc2ccccc2c2c3ccccc3nc1-2" ?
Response given: 81

---

system: Trypanosoma brucei rhodesiense; test: Antitrypanosomal activity against Trypanosoma brucei rhodesiense; type: functional, organism-based; details: Trypanosoma brucei
Counter-ions that a name gives are not always drawn.
Rule: IC50 below 8 µM gives satisfied. Equal to or above 8 µM gives not satisfied.

# example entries with known answers
Molecule: Cn1cc2ccccc2c2nc3ccccc3c1-2
Class label: satisfied
--
Molecule: Cn1cccc2c3ccccc3nc1-2
Class label: not satisfied
--
Molecule: C[n+]1cc2[nH]c3ccccc3c2c2ccccc21 [ISONEOCRYPTOLEPINE HYDROCHLORIDE]
Class label: satisfied
--
Molecule: Cn1cc2nccc-2c2ccccc21
Class label: not satisfied
--
Molecule: C[n+]1ccc2c(c1)[nH]c1ccccc12
Class label: not satisfied

Challenge: I'd appreciate it if you could check whether C[n+]1c2ccccc2cc2[n-]c3ccccc3c21 [CRYPTOLEPINE HYDROCHLORIDE] has IC50 smaller than 8 µM.
Response given: satisfied

Challenge: I'd appreciate it if you could check whether "Cn1ccc2c3ccccc3nc-2c1" has IC50 smaller than 8 µM.
Response given: not satisfied

Challenge: I'd appreciate it if you could check whether Cn1c2nc3ccccc3c-2cc2ccccc21 [NEOCRYPTOLEPINE HYDROCHLORIDE] has IC50 smaller than 8 µM.
Response given: satisfied

Challenge: I'd appreciate it if you could check whether "Cn1cc2ccccc2c2ccnc1-2" has IC50 smaller than 8 µM.
Response given: not satisfied

Challenge: I'd appreciate it if you could check whether "c1ccc2c(c1)cnc1[nH]ccc12" has IC50 smaller than 8 µM.
Response given: not satisfied

Challenge: I'd appreciate it if you could check whether Cn1cc2c3ccccc3nc-2c2ccccc21 [ISOCRYPTOLEPINE HYDROCHLORIDE] has IC50 smaller than 8 µM.
Response given: satisfied

Challenge: I'd appreciate it if you could check whether "Cn1cc2ccccc2c2c3ccccc3nc1-2.I" has IC50 smaller than 8 µM.
Response given: satisfied

---

system: Leishmania donovani; experiment: Antileishmanial activity against Leishmania donovani axenic amastigotes; format: functional, organism-based; conditions: Leishmania donovani
Structures can show the parent of a compound that is named as a salt.
Readout: pIC50
Just the number, please; pIC50 means minus log10 of the concentration in mol/L.

Take a look at these entries with their results.
Compound: C[n+]1cc2[nH]c3ccccc3c2c2ccccc21 [ISONEOCRYPTOLEPINE HYDROCHLORIDE]
Endpoint value: 4.12

Compound: Cn1c2nc3ccccc3c-2cc2ccccc21 [NEOCRYPTOLEPINE HYDROCHLORIDE]
Endpoint value: 4.31

Compound: c1ccc2c(c1)ncc1[nH]ccc12
Endpoint value: 3.74

Challenge: Could you share which pIC50 value was measured for "Cn1cc2ccccc2c2nc3ccccc3c1-2" ?
Response given: 4.81

Challenge: Could you share which pIC50 value was measured for "Cn1ccc2c3ccccc3nc-2c1" ?
Response given: 4.04

Challenge: Could you share which pIC50 value was measured for "c1ccc2c(c1)cnc1[nH]ccc12" ?
Response given: 4.52

Challenge: Could you share which pIC50 value was measured for "Cn1cc2nccc-2c2ccccc21" ?
Response given: 3.77

---

experiment: Toxicity against rat L6 cells; format: cell-based; conditions: rat, L6 cells
IC50 values by entry
Value expressed in µM; do not type the unit.

Challenge: Could you share which IC50 value was measured for "Cn1cccc2nc3ccccc3c1-2" ?
Response given: 132

Challenge: Could you share which IC50 value was measured for "Cn1cccc2c3ccccc3nc1-2" ?
Response given: 236

Challenge: Could you share which IC50 value was measured for "Cn1ccc2nc3ccccc3c-2c1" ?
Response given: 390

---

test: Selectivity index, ratio of IC50 for mice (Mus musculus) FM3A cells to IC50 for chloroquine-sensitive Plasmodium falciparum FCR3/Gambia; format: toxicity, cell-based; conditions: read-out: Ratio IC50
selectivity ratio values by entry

Entry smiles: COc1c[n+](C)c(C)c2[nH]c3ccccc3c12
selectivity ratio: > 32
//
Entry smiles: C=Cc1c2[nH]c3ccccc3c2c(OC)c[n+]1CC
selectivity ratio: > 32
//
Entry smiles: COc1ccc2c3cc[n+](C)c(C)c3n(C)c2c1
selectivity ratio: > 32
//
Entry smiles: CCc1c2[nH]c3ccccc3c2c(OC)c[n+]1C
selectivity ratio: > 32

--- query ---
Challenge: Could you share which selectivity ratio value was measured for "Cc1c2[nH]c3ccccc3c2cc[n+]1C" ?
Response given: 18

---

system: Trypanosoma brucei rhodesiense; assay: Antitrypanosomal activity against Trypanosoma brucei rhodesiense; type: functional, organism-based; conditions: Trypanosoma brucei
Readout: pIC50
Just the number, please; pIC50 means minus log10 of the concentration in mol/L.

Take a look at these entries with their results.
Entry smiles: Cn1ccc2nc3ccccc3c-2c1
Subject of test: Trypanosoma brucei rhodesiense
Endpoint value: 3.96

Entry smiles: Cn1cccc2nc3ccccc3c1-2
Subject of test: Trypanosoma brucei rhodesiense
Endpoint value: 4.06

--- query ---
Challenge: Could you share which pIC50 value was measured for "c1ccc2c(c1)ncc1[nH]ccc12" ?
Response given: 4.59

---

tested on: L6; experiment: Toxicity against rat L6 cells; format: cell-based; conditions: l6
Readout: pIC50
Just the number, please; pIC50 means minus log10 of the concentration in mol/L.

Challenge: Could you share which pIC50 value was measured for "Cn1cc2ccccc2c2c3ccccc3nc1-2" ?
Response given: 5.89

Challenge: Could you share which pIC50 value was measured for "Cn1cccc2nc3ccccc3c1-2" ?
Response given: 3.75

Challenge: Could you share which pIC50 value was measured for "Cn1cccc2c3ccccc3nc1-2" ?
Response given: 3.52

Challenge: Could you share which pIC50 value was measured for "Cn1cc2ccccc2c2nc3ccccc3c1-2" ?
Response given: 5.66

---

tested on: Trypanosoma cruzi; experiment: Antitrypanosomal activity against Trypanosoma cruzi; assay type: functional, organism-based; settings: Trypanosoma cruzi
Structures can show the parent of a compound that is named as a salt.
pIC50 values by entry
Just the number, please; pIC50 means minus log10 of the concentration in mol/L.

Compound: Cn1cc2nccc-2c2ccccc21
pIC50: 4.11
//
Compound: Cn1cccc2c3ccccc3nc1-2
pIC50: 4.19

Challenge: Could you share which pIC50 value was measured for C[n+]1c2ccccc2cc2[n-]c3ccccc3c21 [CRYPTOLEPINE HYDROCHLORIDE] ?
Response given: 6.66

Challenge: Could you share which pIC50 value was measured for "Cn1cc2ccccc2c2c3ccccc3nc1-2.I" ?
Response given: 4.92

Challenge: Could you share which pIC50 value was measured for "c1ccc2c(c1)ncc1[nH]ccc12" ?
Response given: 4.09

Challenge: Could you share which pIC50 value was measured for "O=C(Cn1ccnc1[N+](=O)[O-])NCc1ccccc1" ?
Response given: 5.90

Challenge: Could you share which pIC50 value was measured for "Cn1cc2ccccc2c2nc3ccccc3c1-2" ?
Response given: 5.82

Challenge: Could you share which pIC50 value was measured for "c1ccc2c(c1)cnc1[nH]ccc12" ?
Response given: 4.16

Challenge: Could you share which pIC50 value was measured for Cn1c2nc3ccccc3c-2cc2ccccc21 [NEOCRYPTOLEPINE HYDROCHLORIDE] ?
Response given: 5.70

Challenge: Could you share which pIC50 value was measured for Cn1cc2c3ccccc3nc-2c2ccccc21 [ISOCRYPTOLEPINE HYDROCHLORIDE] ?
Response given: 5.90

Challenge: Could you share which pIC50 value was measured for C[n+]1cc2[nH]c3ccccc3c2c2ccccc21 [ISONEOCRYPTOLEPINE HYDROCHLORIDE] ?
Response given: 4.68

Challenge: Could you share which pIC50 value was measured for "Cn1cc2ccccc2c2ccnc1-2" ?
Response given: 4.39

---

system: Leishmania donovani; test: Antileishmanial activity against Leishmania donovani axenic amastigotes; assay type: functional, organism-based; conditions: Leishmania donovani
Where a name gives a salt, the structure may show the parent alone.
Readout: pIC50
Just the number, please; pIC50 means minus log10 of the concentration in mol/L.

Compound: C[n+]1c2ccccc2cc2[n-]c3ccccc3c21 [CRYPTOLEPINE HYDROCHLORIDE]
Endpoint value: 5.57
--
Compound: Cn1cc2c3ccccc3nc-2c2ccccc21 [ISOCRYPTOLEPINE HYDROCHLORIDE]
Endpoint value: 4.41
--
Compound: Cn1cc2ccccc2c2c3ccccc3nc1-2
Endpoint value: 5.32
--
Compound: Cn1cc2ccccc2c2ccnc1-2
Endpoint value: 4.01

--- query ---
Challenge: Could you share which pIC50 value was measured for "C[n+]1ccc2c(c1)[nH]c1ccccc12" ?
Response given: 4.28

---

experiment: Toxicity against rat L6 cells; format: cell-based; conditions: rat, L6 cells
Readout: IC50 (µM)
Value expressed in µM; do not type the unit.

Compound: Cn1cc2ccccc2c2c3ccccc3nc1-2.I
Endpoint value: 1.5
--
Compound: CCN(CC)CCCC(C)Nc1ccnc2cc(Cl)ccc12 (configuration not stated)
Endpoint value: 43.1
--
Compound: Cn1cc2nccc-2c2ccccc21
Endpoint value: 160

Challenge: Could you share which IC50 value was measured for "Cn1cc2ccccc2c2ccnc1-2" ?
Response given: 153

Challenge: Could you share which IC50 value was measured for "c1ccc2c(c1)ncc1[nH]ccc12" ?
Response given: 173

Challenge: Could you share which IC50 value was measured for "CCCCCCCCCCCCCCCCOP(=O)([O-])OCC[N+](C)(C)C" ?
Response given: 58.4

Challenge: Could you share which IC50 value was measured for "Cn1cc2ccccc2c2nc3ccccc3c1-2" ?
Response given: 1.48

Challenge: Could you share which IC50 value was measured for "c1ccc2c(c1)cnc1[nH]ccc12" ?
Response given: 119

Challenge: Could you share which IC50 value was measured for Nc1nc(N)nc(Nc2ccc([As]3SCC(CO)S3)cc2)n1 (configuration not stated) ?
Response given: 8.6
